- Test system: lambsquarters
- Assay remarks: Test B pre-/postemergence herbicide test
- Assay type: in vivo, Chenopodium album
- Assay context: 125 g ai/ha; 0 is no effect, 100 is complete control; preemergence
Plant response rating (0 to 100 scale), Lambsquarters less than 80 is YES; Plant response rating (0 to 100 scale), Lambsquarters greater than or equal to 80 is NO.

[
  {
    "Compound": "CCNC(=O)c1ccc(F)c(NC(=O)c2cn(C(C)(C)C)nc2C)c1 [Compound 345]",
    "Group label": "YES"
  }
]

In: For this compound, is Plant response rating (0 to 100 scale), Lambsquarters lower than 80? CCNC(=O)c1cccc(NC(=O)c2nn(C(C)(C)C)nc2C)c1 [Compound 392]
Out: NO

In: For this compound, is Plant response rating (0 to 100 scale), Lambsquarters lower than 80? C=CCNC(=O)c1ccc(F)c(NC(=O)c2nn(C(C)(C)C)nc2CC)c1 [Compound 383]
Out: YES

In: For this compound, is Plant response rating (0 to 100 scale), Lambsquarters lower than 80? Cc1nn(C(C)(C)C)nc1C(=O)Nc1cccc(C(=O)N2CC=CC2)c1 [Compound 393]
Out: NO

In: For this compound, is Plant response rating (0 to 100 scale), Lambsquarters lower than 80? CCOC(=O)c1ccc(F)c(NC(=S)c2cc(C(C)(C)C)nn2CC)c1 [Compound 346]
Out: YES

In: For this compound, is Plant response rating (0 to 100 scale), Lambsquarters lower than 80? CCOC(=O)c1cccc(NC(=O)c2nn(C(C)(C)C)nc2Br)c1 [Compound 432]
Out: YES

In: For this compound, is Plant response rating (0 to 100 scale), Lambsquarters lower than 80? CCn1nc(C(C)(C)C)cc1C(=O)Nc1cc(OCCF)ccc1F [Compound 350]
Out: YES

In: For this compound, is Plant response rating (0 to 100 scale), Lambsquarters lower than 80? CCNC(=O)c1ccnc(NC(=O)c2nn(C(C)(C)C)nc2C)c1 [Compound 424]
Out: YES

In: For this compound, is Plant response rating (0 to 100 scale), Lambsquarters lower than 80? CCc1nn(C(C)(C)C)nc1C(=S)Nc1cccc(C(=S)N(C)C)c1 [Compound 396]
Out: NO

In: For this compound, is Plant response rating (0 to 100 scale), Lambsquarters lower than 80? CCNC(=O)c1cncc(NC(=O)c2nn(C(C)(C)C)nc2C)c1 [Compound 427]
Out: YES
